Data provenance is patent US20250042891A1.

# Tested on: HCC1395
# METHOD: CTG assay for proliferation inhibition of cell lines
# Format: cell-based
# CONDITION NOTES: HCC1395, 7 days, CellTiter Glo
READOUT NAME: IC50 (µM)
Your answer should be a plain number; it is taken to be in µM.

A selection of reference data follows.
>  <MOLECULE>
CC(C)S(=O)(=O)N1CCN(c2c(F)c(S(=O)(=O)NC3(C#N)CC3)cc3c(-c4nnc(C(F)(F)F)s4)nn(C)c23)CC1 [Compound 56]

>  <MEASUREMENT>
0.0475

$$$$
>  <MOLECULE>
CC(C)S(=O)(=O)N1CCC(c2cc(S(=O)(=O)NC3(C#N)CC3)cc3c(-c4nnc(C(F)F)s4)nn(C)c23)=C(C=O)C1 [Compound 70]

>  <MEASUREMENT>
0.27

$$$$

*Q* // Input: CC(C)S(=O)(=O)N1CCC(c2cc(S(=O)(=O)NC3(C#N)CC3)cc3c(-c4nnc(C(F)F)s4)nn(C)c23)=C(CN(C)C)C1 [Compound 71] . Output its IC50 only.
*A* 0.308

*Q* // Input: CC(C)S(=O)(=O)N1CC=C(c2cc(S(=O)(=O)NC3(C#N)CC3)cc3c(-c4nnc(C(F)F)o4)nn(C)c23)CC1 [Compound 6] . Output its IC50 only.
*A* 0.442

*Q* // Input: CC(C)S(=O)(=O)N1CCC(c2cc(S(=O)(=O)NC3(C#N)CC3)cc3c(-c4nnc(C(F)F)s4)nn(C)c23)=C(CO)C1 [Compound 36] . Output its IC50 only.
*A* 0.127

*Q* // Input: CC(C)S(=O)(=O)N1CC=C(c2cc(S(=O)(=O)NC3(CF)CC3)cc3c(-c4nnc(C(F)F)s4)nn(C)c23)CC1 [Compound 18] . Output its IC50 only.
*A* 0.0423

*Q* // Input: Cn1nc(-c2nnc(C(F)F)s2)c2cc(S(=O)(=O)NC3(C#N)CC3)cc(C3=CCN(S(=O)(=O)C4COC4)CC3)c21 [Compound 22] . Output its IC50 only.
*A* 0.605

*Q* // Input: CN(C)S(=O)(=O)N1CC=C(c2cc(S(=O)(=O)NC3(C#N)CC3)cc3c(-c4nnc(C(F)F)s4)nn(C)c23)CC1 [Compound 32] . Output its IC50 only.
*A* 0.177

*Q* // Input: CC(C)S(=O)(=O)N1CCC(c2cc(S(=O)(=O)NC3(C#N)CC3)cc3c(-c4nnc(C(F)(F)F)s4)nn(C)c23)=C(C(N)=O)C1 [Compound 55] . Output its IC50 only.
*A* 0.836

*Q* // Input: CC1=C(c2cc(S(=O)(=O)NC3(C#N)CC3)cc3c(-c4nnc(C(F)(F)F)s4)nn(C)c23)CCN(S(=O)(=O)C(C)C)C1 [Compound 75] . Output its IC50 only.
*A* 0.0352

*Q* // Input: CC(C)S(=O)(=O)N1CC=C(c2cc(S(=O)(=O)NC3(C#N)CC3)cc3c(-c4nnc(C(F)(F)F)s4)nn(C)c23)CC1 [Compound 15] . Output its IC50 only.
*A* 0.0955

*Q* // Input: CC(C)[S+]([O-])c1ccc(-c2cc(S(=O)(=O)NC3(C#N)CC3)cc3c(-c4nnc(C(F)(F)F)s4)nn(C)c23)nc1 (stereo not shown) [Compound 48] . Output its IC50 only.
*A* 2.04

*Q* // Input: CN=S(=O)(C(C)C)N1CC=C(c2cc(S(=O)(=O)NC3(C#N)CC3)cc3c(-c4nnc(C(F)F)s4)nn(C)c23)CC1 (stereo not shown) [Compound 40] . Output its IC50 only.
*A* 0.3
